Each recorded value in this set is attributed to the supplement of paper PMC10567573.

For each of the variants below, state its protein stability index.
B1: TRIM55 (parent)
chain: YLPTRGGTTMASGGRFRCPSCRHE

Variants of: B1
Assay: protein stability index of a GFP-peptide fusion (GPS, HEK-293T) (PSI 1-6); higher = more stable;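 note: lentivirally expressed fusions sorted by FACS into six bins by GFP to DsRed ratio, PSI derived from sequencing read proportions per bin multiplied by bin number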
Details: c terminus: a fixed tail appended
Answer as a number with no unit attached.

Ask: Supply protein stability index value. Item: `S12H`
Reply: 2.29

Ask: Supply protein stability index value. Item: `G14L`
Reply: 1.29

Ask: Supply protein stability index value. Item: `Y1L`
Reply: 2.06

Ask: Supply protein stability index value. Item: `C21W`
Reply: 2.21

Ask: Supply protein stability index value. Item: `E24H`
Reply: 1.47

Ask: Supply protein stability index value. Item: `T9A`
Reply: 2.77

Ask: Supply protein stability index value. Item: `R5V`
Reply: 1.51

Ask: Supply protein stability index value. Item: `F16V`
Reply: 2.71

Ask: Supply protein stability index value. Item: `R17S`
Reply: 2.9

Ask: Supply protein stability index value. Item: `S12V`
Reply: 2.42

Ask: Supply protein stability index value. Item: `R17T`
Reply: 2.96

Ask: Supply protein stability index value. Item: `R15L`
Reply: 1.81

Ask: Supply protein stability index value. Item: `R22F`
Reply: 2.38

Ask: Supply protein stability index value. Item: `P19E`
Reply: 2.01

Ask: Supply protein stability index value. Item: `P3N`
Reply: 2.29

Ask: Supply protein stability index value. Item: `E24D`
Reply: 1.93

Ask: Supply protein stability index value. Item: `G6I`
Reply: 1.04

Ask: Supply protein stability index value. Item: `R22W`
Reply: 2.01

Ask: Supply protein stability index value. Item: `R22V`
Reply: 2.25

Ask: Supply protein stability index value. Item: `R15C`
Reply: 2.02

Ask: Supply protein stability index value. Item: `G7V`
Reply: 1.37

Ask: Supply protein stability index value. Item: `C21T`
Reply: 3.14
